# system: Bcr/Abl fusion protein (Homo sapiens, UniProt P00519)
# Sequence (P00519 whole entry, the tested form may be a part): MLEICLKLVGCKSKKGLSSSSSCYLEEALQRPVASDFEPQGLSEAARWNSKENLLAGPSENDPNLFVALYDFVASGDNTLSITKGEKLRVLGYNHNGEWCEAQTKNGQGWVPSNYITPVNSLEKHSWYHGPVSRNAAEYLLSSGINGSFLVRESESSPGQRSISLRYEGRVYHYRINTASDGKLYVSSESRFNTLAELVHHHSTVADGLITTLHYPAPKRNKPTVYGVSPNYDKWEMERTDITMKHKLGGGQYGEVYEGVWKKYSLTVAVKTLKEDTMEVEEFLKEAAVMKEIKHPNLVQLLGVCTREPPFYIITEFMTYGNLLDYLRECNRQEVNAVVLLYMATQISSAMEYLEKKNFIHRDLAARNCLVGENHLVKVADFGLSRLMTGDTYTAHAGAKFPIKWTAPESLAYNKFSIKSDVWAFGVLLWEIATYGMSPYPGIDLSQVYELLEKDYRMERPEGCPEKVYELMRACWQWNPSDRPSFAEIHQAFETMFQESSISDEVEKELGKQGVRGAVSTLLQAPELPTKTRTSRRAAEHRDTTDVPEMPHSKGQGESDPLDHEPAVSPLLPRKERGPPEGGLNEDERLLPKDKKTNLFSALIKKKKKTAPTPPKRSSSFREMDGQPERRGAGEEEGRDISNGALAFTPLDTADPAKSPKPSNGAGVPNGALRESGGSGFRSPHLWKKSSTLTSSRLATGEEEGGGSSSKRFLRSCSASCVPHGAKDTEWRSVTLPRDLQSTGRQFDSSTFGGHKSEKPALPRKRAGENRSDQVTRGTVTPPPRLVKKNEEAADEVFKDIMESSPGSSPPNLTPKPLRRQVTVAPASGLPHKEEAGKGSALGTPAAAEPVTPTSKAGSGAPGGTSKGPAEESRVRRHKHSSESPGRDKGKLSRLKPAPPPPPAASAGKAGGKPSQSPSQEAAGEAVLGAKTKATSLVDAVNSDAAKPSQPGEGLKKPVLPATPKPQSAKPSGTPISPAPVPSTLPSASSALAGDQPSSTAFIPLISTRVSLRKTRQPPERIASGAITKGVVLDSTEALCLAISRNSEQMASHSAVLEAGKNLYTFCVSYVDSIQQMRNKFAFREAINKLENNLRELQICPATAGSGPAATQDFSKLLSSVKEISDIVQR
# Sequence (P11274 whole entry, further chain, the tested form may be a part): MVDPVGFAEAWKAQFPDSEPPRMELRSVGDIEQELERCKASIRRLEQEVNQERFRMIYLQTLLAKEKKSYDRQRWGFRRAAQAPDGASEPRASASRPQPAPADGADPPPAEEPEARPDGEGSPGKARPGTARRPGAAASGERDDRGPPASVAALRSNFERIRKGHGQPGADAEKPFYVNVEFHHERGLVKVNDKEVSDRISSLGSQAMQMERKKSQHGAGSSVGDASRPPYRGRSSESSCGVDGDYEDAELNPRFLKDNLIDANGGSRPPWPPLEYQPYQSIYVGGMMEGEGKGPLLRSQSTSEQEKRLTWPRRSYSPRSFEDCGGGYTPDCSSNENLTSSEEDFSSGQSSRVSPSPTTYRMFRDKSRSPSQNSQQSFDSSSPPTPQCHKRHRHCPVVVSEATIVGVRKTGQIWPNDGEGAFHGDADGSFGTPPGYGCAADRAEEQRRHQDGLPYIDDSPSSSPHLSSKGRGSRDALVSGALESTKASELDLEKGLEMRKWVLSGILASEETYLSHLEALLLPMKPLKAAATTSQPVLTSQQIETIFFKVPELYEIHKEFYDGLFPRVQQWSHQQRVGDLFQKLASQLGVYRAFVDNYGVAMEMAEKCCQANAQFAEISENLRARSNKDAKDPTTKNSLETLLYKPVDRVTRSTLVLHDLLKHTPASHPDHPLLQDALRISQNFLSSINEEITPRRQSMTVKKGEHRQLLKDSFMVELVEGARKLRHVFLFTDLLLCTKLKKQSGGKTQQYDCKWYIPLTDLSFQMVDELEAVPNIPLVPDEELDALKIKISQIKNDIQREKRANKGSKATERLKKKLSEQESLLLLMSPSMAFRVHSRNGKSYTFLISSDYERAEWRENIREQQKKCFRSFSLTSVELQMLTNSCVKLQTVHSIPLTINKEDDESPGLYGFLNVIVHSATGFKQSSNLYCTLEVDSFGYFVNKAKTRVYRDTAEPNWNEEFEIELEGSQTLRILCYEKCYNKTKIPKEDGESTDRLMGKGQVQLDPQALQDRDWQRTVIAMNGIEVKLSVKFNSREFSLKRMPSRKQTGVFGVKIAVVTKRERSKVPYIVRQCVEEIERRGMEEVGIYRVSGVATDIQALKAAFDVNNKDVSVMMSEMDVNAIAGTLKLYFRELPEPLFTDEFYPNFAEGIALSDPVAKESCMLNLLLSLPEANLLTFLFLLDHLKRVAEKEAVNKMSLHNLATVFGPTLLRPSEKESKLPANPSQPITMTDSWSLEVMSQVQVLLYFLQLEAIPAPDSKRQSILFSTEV
# test description: Inhibition of Bcr-Abl (unknown origin) after 1 hr by luminescence assay
assay endpoint: pIC50
Answer as the number alone; pIC50 is minus log10 of concentration in mol/L.

Worked examples, 3 compounds total:
sample smiles: COc1ccc(Nc2cc(-c3ccc(C(=O)NCCNC(=O)c4ccccc4C)cc3)ncn2)cc1
assay endpoint: pIC50
numeric value: 4.84
--
sample smiles: COc1ccc(Nc2cc(-c3ccc(C(=O)NCCNC(=O)c4cccc(OC)c4)cc3)ncn2)cc1
assay endpoint: pIC50
numeric value: 5.07
--
sample smiles: COc1ccc(Nc2cc(-c3ccc(C(=O)N4CCN(C(=O)c5ccc(F)cc5)CC4)cc3)ncn2)cc1
assay endpoint: pIC50
numeric value: 7.77

Below: the item to evaluate.
pIC50 recorded for this compound, `COc1ccc(Nc2cc(-c3ccc(C(=O)NCCNC(=O)c4ccc(F)c(F)c4)cc3)ncn2)cc1` , is 5.36

Reference source: ChEMBL document CHEMBL3616476
